// provenance: patent US8846636B2

Tested on: BxPC-3
assay: MTT cell proliferation assay, BxPC-3
Assay type: cell-based
conditions-used: Homo sapiens; BxPC-3 cell line (pancreas)
Protocol: The antiviral and antitumor activities of the compounds of the invention were evaluated by a cellular proliferation assay. […] The color can then be quantified using a simple colorimetric assay. The results can be read on a multiwell scanning spectrophotometer (ELISA reader). […]
Listed compounds paired with reported IC50

# annotated cases, reported IC50 shown
compound	experimental-system	assay-value
CC12C(=O)OC[C@H]1O[C@@H](n1ccc(N)nc1=O)C2O (mixture of isomers)	BxPC-3	160 µM
CC1(CO)C(O)[C@H](n2cnc3c(=O)nc(N)[nH]c(=O)c32)O[C@@H]1CO (stereo in doubt)	BxPC-3	> 500 µM

Shift focus to the following entry.
What value of measured IC50 is listed for C[C@]1(CO)C(O)[C@H](n2ccc(N)nc2=O)O[C@@H]1CO (stereo partly drawn) ?
> 500 µM

---

Test system: 1A6
assay: MTT cell proliferation assay, 1A6
Assay type: cell-based
conditions-used: 1A6 cell line (urinary bladder)
IC50 by entry:

compound	IC50
C[C@]1(C(N)=O)[C@H](O)[C@@H](n2ccc(N)nc2=O)O[C@@H]1CO [LCB-1087]	> 500 µM
C[C@@]1(CO)[C@@H](CO)O[C@@H](n2cc(F)c(N)nc2=O)[C@@H]1O [LCB-1096]	> 500 µM

Look up IC50: C[C@]1(C(=O)NN)[C@@H](CO)O[C@@H](n2cc(F)c(N)nc2=O)[C@@H]1O [LCB-1085]
> 100 µM

Please do the same for CC12C(=O)OC[C@H]1O[C@@H](n1ccc(N)nc1=O)C2O (mixture of isomers) [LCB-1079] as well.
350 µM

// repeat for Nc1ccn([C@@H]2O[C@H](CO)[C@@H](O)C2(F)F)c(=O)n1 [Gemci., Gemcitabine, reference compound] and report
5 µM

CC1(CO)C(O)C(n2cnc3c(N)nc(Cl)nc32)O[C@@H]1CO (stereo in doubt) [LCB-1091] ?
> 500 µM

Could you do the same for O=c1[nH]cc(F)c(=O)[nH]1 [5-FU, 5-fluorouracil, reference compound] , please?
300 µM

Would you mind doing CC1(CO)C(O)C(n2cc(F)c(N)nc2=O)O[C@@H]1CO (some centres unmarked) [LCB-1082] as well?
> 500 µM

---

System: BxPC-3
assay: MTT cell proliferation assay, BxPC-3
Format: cell-based
conditions-used: Homo sapiens; BxPC-3 cell line (pancreas)
pIC50: −log10 of the molar value.
In this section we review reported pIC50 values for a set of compounds.

API: value(readout=pIC50, system=BxPC-3) for record C[C@]1(C(=O)NN)[C@@H](CO)O[C@@H](n2cc(F)c(N)nc2=O)[C@@H]1O
< 4.00

---

System: 1A6
assay: MTT cell proliferation assay, 1A6
Assay type: cell-based
conditions-used: 1A6 cell line (urinary bladder)
pIC50: −log10 of the molar value.
# maps each entry to its pIC50

compound	assay-value
C[C@@]1(CO)[C@@H](CO)O[C@@H](n2ccc(N)nc2=O)[C@@H]1O	< 3.30
CC1(CO)C(O)[C@H](n2cnc3c(=O)nc(N)[nH]c(=O)c32)O[C@@H]1CO (stereo in doubt)	< 3.30
CCOC(=O)C1(C)[C@@H](CO)O[C@H](n2cnc3c(NN)nc(NN)nc32)[C@@H]1O (some centres unmarked)	< 4.00

Reported pIC50 for C[C@]1(CO)C(O)[C@H](n2ccc(N)nc2=O)O[C@@H]1CO (some centres unmarked) : what is it?
< 3.30

Thanks! And CC12C(=O)OC[C@H]1O[C@@H](n1cc(F)c(N)nc1=O)C2O (mixture of isomers) ?
< 3.30
